- system.under.test: T1, SUDV GP (recombinant) (SUDV (Sudan ebolavirus), UniProt Q66814 33-650)
- T1 chain: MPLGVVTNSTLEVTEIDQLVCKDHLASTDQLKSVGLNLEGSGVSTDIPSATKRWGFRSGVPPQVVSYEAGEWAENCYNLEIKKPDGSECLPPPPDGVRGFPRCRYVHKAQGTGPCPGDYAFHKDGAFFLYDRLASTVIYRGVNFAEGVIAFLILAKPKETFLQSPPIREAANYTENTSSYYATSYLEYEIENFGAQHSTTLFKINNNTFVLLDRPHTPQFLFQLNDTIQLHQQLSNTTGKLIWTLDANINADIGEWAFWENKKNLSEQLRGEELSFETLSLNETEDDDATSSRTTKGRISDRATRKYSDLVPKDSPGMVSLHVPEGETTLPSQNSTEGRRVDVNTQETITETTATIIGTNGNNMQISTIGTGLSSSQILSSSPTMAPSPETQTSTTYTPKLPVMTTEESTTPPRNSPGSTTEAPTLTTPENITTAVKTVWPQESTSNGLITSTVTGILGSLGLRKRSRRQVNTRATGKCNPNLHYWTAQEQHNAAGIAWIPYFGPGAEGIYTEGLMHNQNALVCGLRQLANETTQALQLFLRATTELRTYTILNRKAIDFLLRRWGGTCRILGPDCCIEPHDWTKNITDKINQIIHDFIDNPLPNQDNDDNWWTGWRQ
- method.summary: ELISA
Catalogue of binders with associated EC50

binder	EC50
EBOV63 (antibody, V domains shown) VH: EVQLVESGGGLVKPGGSLRLSCAASGFTLNFYNMNWVRQAPGKGLEWVSSISSSSNYIYYADSVKGRFTISRDNARKSLYLQMNSLRAEDTAVYYCARDFVQLLIPQRDEWQGVHDYYGMDVWGQGTLVTVSS VL: EIVLTQSPGTLSLSPGGRATLSCRASQSVSNSYLAWYQQKPGQAPRLLIYGASSRATGIPDRFSGSGSGTDFILTISRLEPEDFAVYYCQHYGSSQLTFGGGTKVEIK	> 10 µg/mL
EBOV87 (antibody, V domains shown) VH: QVQLVQSGAEVKRPGASVKVSCKASGYTFTSYAISWVRQAPGQGLEWMGWISGNNGNTNYAQKLQGRLTMTTDTSTSTAYMELRSLRSDDTAVYYCARDADIVVVVGATGTYYYGMDVWGQGTLVTVSS VL: DIVMTQSPSTLSASVGDRVTITCRASQSISSWLAWYQQKPGKAPKLLIYDASSLESGVPSRFSGSGSGTEFTLTISSLQPDDFATYYCQQYKSSLRTFGQGTQLEIK	0.629 µg/mL
EBOV62 (antibody, V domains shown) VH: EVQLVESGGGLVQPGGSLRLSCAASGFTFSSYWMSWVRQAPGKGLEWVANIKQDGSAKYYVDSVKGRFTISRDNAKNSLYLQMNSLRAEDTAVYYCARDGLLGISDLLYPIYYFDYWGQGTLVTVSS VL: DIVMTQSPSSLSASVGDRVTITCRASQNIGSYLNWYQQKPGKAPNLLMYAASSLQSGVPSRFSGSGSGTDFTLTITSLQPEDFATYYCQQSYSIPRTFGQGTQLEIK	> 10 µg/mL

Query: Reported EC50, binder EBOV52 (antibody, V domains shown) VH: QVQLQESGPGLVKPSETLSLNCTVSGGSISSYYWSWIRQPPGKGLEWIGYIYDSGRTKYNPSLKSRVTISLDTSKNQFSLKLSSVTAADTAVYYCASLGPFDKLWFGELLPGWFDPWGQGTLVTVSS VL: EIVLTQSPATLSLSPGGRATLSCRASQSVHNYLAWYQQKSGQAPRLLIYDASNRATGIPARFSGSGSGTDFTLTISSLEPDDFAVYYCQHRSNWLTFGGGTKVEIK : ____
Response: > 10 µg/mL
